Target: T1, human GLP-1 receptor (human, UniProt P43220 24-463)
T1 construct: whole, on cells; also called hGLP-1R; human glucagon-like peptide-1 receptor
Assay: SPA competition vs [125I]-GLP-1, hGLP-1R membranes
Readout kind: Ki (nM)
// return numeric value only (unit: nM, not printed)

Record excerpt, results attached:
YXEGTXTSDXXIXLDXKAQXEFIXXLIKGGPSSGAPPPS (Aib2, αMeF(2F)6, 4Pal10, Aib11, αMeL13, Orn16, K17(Z1), Aib20, D-Glu24, αMeY25, K28(Z1), C-term NH2; Z1=AEEA3-(γ-Glu)-CO-(CH2)10-CH3)    0.275
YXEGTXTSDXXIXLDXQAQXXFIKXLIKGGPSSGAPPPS (Aib2, αMeF(2F)6, 4Pal10, Aib11, αMeL13, Orn16, Aib20, Orn21, K24(Z1), αMeY25, K28(Z1), C-term NH2; Z1=PEG3-(γ-Glu)-(10-(4-carboxyphenoxy)decanoyl))    0.125
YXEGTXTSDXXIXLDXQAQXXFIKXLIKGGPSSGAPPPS (Aib2, αMeF(2F)6, 4Pal10, Aib11, αMeL13, Orn16, Aib20, Orn21, K24(Z1), αMeY25, K28(Z1), C-term NH2; Z1=PEG5-(γ-Glu)-CO-(CH2)12-CO2H)    0.381
YXEGTXTSDXSIXLDXQAQXXFIKXLIKGGPSSGAPPPS (Aib2, αMeF(2F)6, hY10 (so in the source), αMeL13, Orn16, Aib20, Orn21, K24(Z1), αMeY25, K28(Z1), C-term NH2; Z1=AEEA2-(γ-Glu)-CO-(CH2)12-CO2H)    0.182
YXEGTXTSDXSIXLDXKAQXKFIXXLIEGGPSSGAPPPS (Aib2, αMeF(2F)6, 4Pal10, αMeL13, Orn16, K17(Z1), Aib20, K21(Z1), D-Glu24, αMeY25, C-term NH2; Z1=AEEA2-(γ-Glu)-CO-(CH2)14-CH3)    0.246

# input for lookup
// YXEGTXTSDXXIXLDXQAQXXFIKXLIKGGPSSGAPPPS (Aib2, αMeF(2F)6, 4Pal10, Aib11, αMeL13, Orn16, Aib20, Orn21, K24(Z1), αMeY25, K28(Z1), C-term NH2; Z1=AEEA2-(γ-Glu)2-(10-(4-carboxyphenoxy)decanoyl)) : Ki value = 0.189

Source: patent US20230265151A1
